From: ChEMBL document CHEMBL1123385

- Species: Rattus norvegicus
- PROCEDURE DETAILS: Hill coefficient of the compound
- SETUP CONDITIONS: in vitro
EXPERIMENTAL READOUT: Hill coefficient
Give a plain numeric answer without units written out.

Lab note: CO/C(O)=C1\C(C)=NC(C)=C(C(=O)O[C@@H]2CCN(Cc3ccccc3)C2)[C@@H]1c1cccc([N+](=O)[O-])c1.Cl gave Hill coefficient of 1.143

Lab note: COC(=O)C1=C(C)NC(C)=C(C(=O)OC)C1c1ccccc1[N+](=O)[O-] gave Hill coefficient of 1.105

Lab note: COC(=O)C1=C(C)NC(C)=C(C(=O)OCCN(C)Cc2ccccc2)[C@H]1c1cccc([N+](=O)[O-])c1 gave Hill coefficient of 1.286

Lab note: CO/C(O)=C1\C(C)=NC(C)=C(C(=O)O[C@H]2CCN(Cc3ccccc3)C2)[C@@H]1c1cccc([N+](=O)[O-])c1.Cl (racemic) gave Hill coefficient of 0.957

Lab note: CO/C(O)=C1\C(C)=NC(C)=C(C(=O)O[C@H]2CCN(Cc3ccccc3)C2)[C@H]1c1cccc([N+](=O)[O-])c1.Cl gave Hill coefficient of 1.203

Lab note: CO/C(O)=C1\C(C)=NC(C)=C(C(=O)O[C@@H]2CCN(Cc3ccccc3)C2)[C@H]1c1cccc([N+](=O)[O-])c1.Cl gave Hill coefficient of 0.752

Lab note: COC(=O)C1=C(C)NC(C)=C(C(=O)OCCN(C)Cc2ccccc2)C1c1cccc([N+](=O)[O-])c1 (racemic) gave Hill coefficient of 1.054

Lab note: COC(=O)C1=C(C)NC(C)=C(C(=O)OCCN(C)Cc2ccccc2)[C@@H]1c1cccc([N+](=O)[O-])c1 gave Hill coefficient of 1.241
